# experimental_target: TbRPA1 DBD-AB S105T (Trypanosoma brucei, UniProt Q384B5 1-257, S105T)
# experiment: MST; 20 mM Tris pH 7.5, 10 mM NaCl, 10 mM MgCl2, 2 mM DTT, 10% glycerol, 0.1 mg/ml BSA, 15 min, room temperature; EMSA 2 nM probe (gel at 4 C), MST 10 nM probe
# recorded_conditions: protein: recombinant; tags: N-term 6xHis; label: 5' Cy5 (MST) or 5' IRDye800 (EMSA); single strand
measurement_type: pKd
FYI, pKd means -log10 of a concentration in mol per litre.

Which pKd is listed for TTTTTTTTTTTTTTTTTTTTTTTTTTTTTTTT (ssDNA) [dT32] ? 7.66
